experimental-target: Elastase from human neutrophils (Homo sapiens, UniProt P08246)
Sequence (P08246 30-267): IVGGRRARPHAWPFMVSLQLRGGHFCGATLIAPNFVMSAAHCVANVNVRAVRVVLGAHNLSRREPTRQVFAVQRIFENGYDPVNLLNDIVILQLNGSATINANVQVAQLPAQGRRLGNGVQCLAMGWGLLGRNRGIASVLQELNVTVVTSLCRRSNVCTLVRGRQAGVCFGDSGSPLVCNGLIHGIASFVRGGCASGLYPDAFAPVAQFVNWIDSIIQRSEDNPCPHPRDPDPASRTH
test-protocol: Enzymatic assay, elastase
condition-label: at 100 μM (stated in cell instead of IC50)
Where a SMILES comes first, the peptide text is derived from it.
Catalogue of compounds with associated Elastase at 100 μM %
Answer with a number only, understood to be in at %.

Examples with their reported Elastase at 100 μM % follow.
compound	experimental-target	unit-annotation	Elastase at 100 μM %
CCCC[C@@H]1NC(=O)[C@@H]2CCCN2C(=O)[C@H]2CCCN2C(=O)[C@H](CO)NC(=O)[C@@H]2CSSC[C@H](NC1=O)C(=O)N[C@@H]([C@@H](C)O)C(=O)N[C@@H](CCCCN)C(=O)N[C@@H](CO)C(=O)N[C@@H](CC(=O)O)C(=O)N1CCC[C@H]1C(=O)N1CCC[C@H]1C(=O)N[C@@H]([C@@H](C)CC)C(=O)N2 [Ex. 10] (HELM PEPTIDE1{[Nle].C.T.K.S.D.P.P.I.C.S.[dP].P}$PEPTIDE1,PEPTIDE1,2:R3-10:R3|PEPTIDE1,PEPTIDE1,1:R1-13:R2$$$V2.0)	Elastase from human neutrophils (Homo sapiens, UniProt P08246)	at %	0.3
CC[C@H](C)[C@@H]1NC(=O)[C@@H]2CCCN2C(=O)[C@@H]2CCCN2C(=O)[C@H](CC(=O)O)NC(=O)[C@H](CO)NC(=O)[C@H](CCCCN)NC(=O)[C@H]([C@@H](C)O)NC(=O)[C@@H]2CSSC[C@H](NC1=O)C(=O)N[C@@H](CO)C(=O)N1CCC[C@@H]1C(=O)N1CCC[C@H]1C(=O)N[C@@H](Cc1ccc(N)cc1)C(=O)N2 [Ex. 9] (HELM PEPTIDE1{[Nc1ccc(C[C@H](N[*:1])C(=O)[*:2])cc1].C.T.K.S.D.P.P.I.C.S.[dP].P}$PEPTIDE1,PEPTIDE1,2:R3-10:R3|PEPTIDE1,PEPTIDE1,1:R1-13:R2$$$V2.0)	Elastase from human neutrophils (Homo sapiens, UniProt P08246)	at %	4.1
CC[C@H](C)[C@@H]1NC(=O)[C@@H]2CCCN2C(=O)[C@@H]2CCCN2C(=O)[C@H](CC(=O)O)NC(=O)[C@H](CO)NC(=O)[C@H](CCCCN)NC(=O)[C@H]([C@@H](C)O)NC(=O)[C@@H]2CSSC[C@H](NC1=O)C(=O)N[C@@H](CCCNC(=N)N)C(=O)N1CCC[C@@H]1C(=O)N1CCC[C@H]1C(=O)N[C@@H](Cc1ccccc1Cl)C(=O)N2 [Ex. 13] (HELM PEPTIDE1{[O=C([C@H](Cc1ccccc1Cl)N[*:1])[*:2]].C.T.K.S.D.P.P.I.C.R.[dP].P}$PEPTIDE1,PEPTIDE1,2:R3-10:R3|PEPTIDE1,PEPTIDE1,1:R1-13:R2$$$V2.0)	Elastase from human neutrophils (Homo sapiens, UniProt P08246)	at %	8.2
CC[C@H](C)[C@@H]1NC(=O)[C@@H]2CCCN2C(=O)[C@@H]2CCCN2C(=O)[C@H](CC(=O)O)NC(=O)[C@H](CN)NC(=O)[C@H](CCCCN)NC(=O)[C@H]([C@@H](C)O)NC(=O)[C@@H]2CSSC[C@H](NC1=O)C(=O)N[C@@H](CO)C(=O)N1CCC[C@@H]1C(=O)N1CCC[C@H]1C(=O)N[C@@H](Cc1ccccc1)C(=O)N2 [Ex. 25] (HELM PEPTIDE1{F.C.T.K.[NC[C@H](N[*:1])C(=O)[*:2]].D.P.P.I.C.S.[dP].P}$PEPTIDE1,PEPTIDE1,2:R3-10:R3|PEPTIDE1,PEPTIDE1,1:R1-13:R2$$$V2.0)	Elastase from human neutrophils (Homo sapiens, UniProt P08246)	at %	3.2

Next item in the queue.
Which Elastase at 100 μM % is listed for CC[C@H](C)[C@@H]1NC(=O)[C@@H]2CCCN2C(=O)[C@@H]2CCCN2C(=O)[C@H](CC(=O)O)NC(=O)[C@H](CO)NC(=O)[C@H](CCCCN)NC(=O)[C@H]([C@@H](C)O)NC(=O)[C@@H]2CSSC[C@H](NC1=O)C(=O)N[C@@H](CO)C(=O)N1CCC[C@@H]1C(=O)N1CCC[C@H]1C(=O)N[C@@H](C1CCCCC1)C(=O)N2 [Ex. 11] (HELM PEPTIDE1{[O=C([C@@H](N[*:1])C1CCCCC1)[*:2]].C.T.K.S.D.P.P.I.C.S.[dP].P}$PEPTIDE1,PEPTIDE1,2:R3-10:R3|PEPTIDE1,PEPTIDE1,1:R1-13:R2$$$V2.0) ? 19
